- Tested on: HCC1937;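 further: viability read by CCK-8 kit in 96-well plates, part of a combination screen pairing lipid-metabolism-targeting compounds with erastin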
- assay_info: relative cell viability, compound + erastin, vs DMSO (fraction of DMSO control); higher = less growth inhibition
- experimental_conditions: 72 h
Mark Criterion met for relative cell viability under 0.7, Criterion not met if at or over.

molecule	label
C[N+](C)(C)CC(O)CC(=O)[O-] (stereo not drawn) [L(-)-Carnitine] + CCOc1ccccc1-n1c(C(C)N2CCN(C(=O)COc3ccc(Cl)cc3)CC2)nc2ccccc2c1=O	Criterion not met

Lab log: compare recorded relative cell viability with 0.7; is it strictly lower for CC(C)OC(=O)C(C)(C)Oc1ccc(C(=O)c2ccc(Cl)cc2)cc1 [Fenofibrate] + CCOc1ccccc1-n1c(C(C)N2CCN(C(=O)COc3ccc(Cl)cc3)CC2)nc2ccccc2c1=O ? Criterion not met

Lab log: compare recorded relative cell viability with 0.7; is it strictly lower for COc1ccc(C(=O)/C=C/c2ccccc2)cc1 [4'-Methoxychalcone] + CCOc1ccccc1-n1c(C(C)N2CCN(C(=O)COc3ccc(Cl)cc3)CC2)nc2ccccc2c1=O ? Criterion met

The reported numbers originate from the supplement of paper PMC9492666.
